# Test system: MS2 coat protein
# experiment.description: apparent Kd, MS2 coat protein; higher = weaker binding; RNA-MaP array; FMN 200 µM where present
# applied.conditions: designed as: ON switch for flavin mononucleotide; no ligand
Each record here notes measured apparent Kd.
metric.name: apparent Kd (nM)

• UUACUCAUGUAAGGAUAUGCAGUCGUUUCGGCUGCAGAAGGUACUAUAAUACAUGAGGAUCACCCAUGUCUUUUUAAUUUUUAC = 112
• CGCGAAAACAUAGGAUAUUGUUACAUGAGGAUCACCCAUGUCAACCAUGUAGCUCGAAUUGUUGUCAAGAAGGAUGAGGUCGCG = 18.4
• UGGUACUAGGGAGGAUAUGGGAAGAUACAUGAGGAUCACCCAUGUUUAAGAAUGCCGAGAAGCAACUAGAAGGCCCUAGUACCU = 332
• GUAUAUCACUCAGGAUAUCUGUAAUUUGUUGAAACAUGAGGAUCACCCAUGUUCAUGAAUUUAUAGGAGAAGGGAGAGAUAUAC = 4.58
• CCGAUUAGCACAGGAUAUGGGAAUUCGUAGUUUCCAGAAGGGUGAGCCAAUACAUGAGGAUCACCCAUGUGCGGUAGGUCGAGA = 51.1
• UUAAUUAUACAAGGAUAUCUAUUGUUAUGUCGACUUACAUGAGGAUCACCCAUGUUAAUAUAUGAAGAGAAGGUGUAUUUUCAG = 157
• UUUAAGCUCACAUGAGGAUCACCCAUGUCCGUUCGCCCGGACAGAAGGCACCCAUGACAAUGCGGUGAGGAUAUGUCAGCAAGG = 120
• GUUUCUAUAAGUUAUAAUUAACAGUCAGAAGGUGAUACUACGACAUGAGGAUCACCCAUGUAAUUCAAGGAUAUGAACUUAAUC = 1120
• UUUAAACAUGAGGAUCACCCAUGUCGUUCAAAUCAAGGAUAUCAAGCGUGUGAGCACACUUGAGAAGGUGAAGCUC = 31
• GCAUACAUUCGAGGAUAUCGGUGAACAAAUUAACGAGAAGGCGAUAUAAUUUUUAAACUUAUAGACAUGAGGAUCACCCAUGUA = 23.7
• GACUCGCGCACAGGAUAUCCACGGAGCGGACGUGGAGAAGGGUGACAUGAGGAUCACCCAUGUACGUGAGUCUAGAUCACUUCC = 67.2
• GGUACCUUCACAGGAUAUGCUAUGCUUUGCGUAGCAGAAGGGUGAUACAUGAGGAUCACCCAUGUGGUGCCAGGGCGUGAGCCC = 283
• AAUAGACAUGAGGAUCACCCAUGUGUAUAUGGGAGAGGAUAUACGGGACACAAGGGCGGAGUAGAAGGCUCGAGAC = 149
• CCGGAAACGGGUAGCCUGACAUGAGGAUCACCCAUGUGAACCAAGGAUAUGGAUCCUAAUUGGAUCCAGAAGGUGGAAGGCUAC = 243
• AGUUAGAUAGCGAUAUGAUCGAGAGAUCAUGUCGCUAAGUUUAGAAGGACAUGAGGAUCACCCAUGUAGGAUAUGGGAGUAGAA = 149
• GGGUACAUCGGAGGAUAUCAAGUAAAUACAUGAGGAUCACCCAUGUCGAUGGAGACAUCGGAGAUUGAGAAGGCCGAUGUACCG = 6
• GUGCCUAACUAGAAGGCCGUAUGCAAAGCAUACGGAGGAUAUGGGUUCCGGAAACGGACAUGAGGAUCACCCAUGUGGCACAAA = 80.4
• UUUUUAAAUAUAGGAUAUGGAAACAUGAGGAUCACCCAUGUAUGAUAAGAUAAAUUAUGAUAUAGCCAGAAGGAUAUUAUUUUU = 32.1
• GUCGGAAACGACAAAAGUAUGGAUCCAGAAGGCAUGAACAUGAGGAUCACCCAUGUCUAAAGAUAUGAGGAUAUGGAUCCAUAC = 6.66
• GUAGUAUAAAGUUCAUAAUAUAGGAUAGAAGGUGAAAAUUUGACAUGAGGAUCACCCAUGUAAUUCAAGGAUAUGUAGUUACUC = 128
• ACAUUUAAUACAGGAUAUGUUAGUAUACAGUUGAUUGGUUAUUACAUUAUAACAGAAGGGUAGAACAUGAGGAUCACCCAUGUA = 153
• GCGUUCUUGUAGAAGGUACUUUCAACAUCUUAUAAACGCUAGACACAUGAGGAUCACCCAUGUUGUAAGGAUAUACAUGAACGC = 11.3
• CUGACAGCGCAGAAGGGAGAUCCUACAUGAGGAUCACCCAUGUGGGCUCUCAGGAUAUGCACGUGUAUGCUGAAAGUAGCAUUG = 17.2
• GGGUACAUCGGAGGAUAUCAUGUAAAUACAUGAGGAUCACCCAUGUCGAUGGAUACAUCGGAGAUUGAGAAGGCCGAUGUACCG = 13
• UGUUACUAGUAAGGAUAUACUUGCAAUAAGCUUGUAGAAGGUACAGUCUUUUGUAUAACAUGUUUACAUGAGGAUCACCCAUGU = 10.6
• AUAGAAGACUAGAAGGACCUAGCUGUAUACCGUCGAGGUAUAUAGCUAGGUAGGAUAUGGGACAUGAGGAUCACCCAUGUCUUG = 8.58
• UGUUGUAUUACAGGAUAUCUAUGAUUUUUGUUUAGAGAAGGGUAUUCACAUGAGGAUCACCCAUGUAUAUACGAGGAAGUUGUG = 60.3
• GUGCCUAACUAGAAGGCCCAAUGCAAAGCAUAGGGAGGAUAUGGGUUUAAUAAAUAAACAUGAGGAUCACCCAUGUGGCACAAA = 45.5
